Source listed as the array DNA melting data of Ke et al. (doi:10.1101/2024.01.08.574731).

Experiment: melting temperature; fluorescence melt of hairpins on a sequencing array, two-state fit, raised by 9.35 °C to match UV melts
Conditions: sodium 0.088 M
attribute measured: Tm

Some sequences with known Tm results, for comparison:
GCGAATGGAAACGTTCGC (((((.(....).))))) | 56.7 °C
CGGGCGGAAACGCCCCG ((((((....))).))) | 59.6 °C
GGTAAAGGAAACTTTGCC ((.((((....)))).)) | 42.6 °C
GCGCCCGAAAGGGATCGC ((((((....)))..))) | 51.8 °C
GGTTCTGGAAACAGAGTC (..((((....))))..) | 28.1 °C
GAGGTGGGAAACTGCCTC ((((..(....)..)))) | 42.7 °C
GACAATGGAAACGTTGTC (((((.(....).))))) | 46.5 °C
GCGAATGATCGC ((((....)))) | 42.3 °C
GTCGACTCGAAAGAGGAC (((..(((....)))))) | 35.6 °C
GTAGTTGGAAACAATTAC (((.(((....))).))) | 34.2 °C

For every item below, please supply its Tm.
1. CGCCCACGGAAACGTGCG (((..(((....))))))
2. GCGTCTTAACGC ((((....))))

Reply text:
1. 37.1 °C
2. 57.5 °C

* * *

Test: melting temperature; fluorescence melt of hairpins on a sequencing array, two-state fit, raised by 9.35 °C to match UV melts
Conditions: sodium 0.088 M
attribute measured: Tm (°C)
Give bare numbers, in °C.

GGAAGTCGAAAGACATCC (((.(((....))).))) | 48.2
GATCTACAGATAGATC ((((((....)))))) | 37.3
GATCGGAAACCGATC ((((((...)))))) | 56

For every item below, please supply its Tm.
1. GATCCAGGGTTGGATC ((((((....))))))
2. GTCCGCGAAAGCGGTGAC ((((((....)))..)))
3. GTCGCTCGAAAGAGGGAC (((.(((....))).)))
4. GGTCAGACGAAAGTCACC (((..(((....))))))
5. GATCGCATGAGCGATC ((((((....))))))
6. GCAGTGCGAAAGCAGAGC ((..(((....)))..))
7. GATCAATTGGTTGATC ((((((....))))))
8. GGTACCGAAAGGTATACC ((((((....)))..)))

Reply text:
[50.8, 41, 63.2, 30.5, 69.3, 50.9, 45.8, 41.4]

For every item below, please supply its Tm.
1. GAACTTGGAAACAAGTCC (.(((((....))))).)
2. GCGTTGGTACGC ((((....))))
3. GCGTGACGACGC ((((....))))
4. GTTAACGAAAGTTTAAC ((((((....))).)))
5. GCAAAGGGAAACCCTTGC ((((.((....)).))))
6. GATCTCAACGAGATC ((((((...))))))
7. GATCGCGCTGGCGATC ((((((....))))))

Reply text:
36
51.3
56.8
34.6
46
55.8
68.9
